- MEASURED TARGET: Concanavalin-A (Canavalia ensiformis)
- PROTOCOL: ConA small-molecule binders, primary screen, artefact control for SMM control protein annotation, biochemical, small-molecule microarray, Alexa647 label, 635 nm (AID 1127);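 note: z combines 667 nm emission intensity with signal-to-noise across three replicate slides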
- CONDITION LABEL: ConA-A647 binding fluorescence, higher = more signal
Measured composite z-score of individual entries
Lab note: jot down the number only; don't add units.

Recorded composite z-score, per entry:
- COMPOUND: "CC(C)(C)N1CC=CC23O[C@@H]4C=CCCOC(=O)C4[C@H]2C(=O)N(CCCCCO)[C@@H]3C1=O (some centres not stated)"
  READOUT NUMBER: -0.339
- COMPOUND: "COCCCNC(=O)[C@]1(Cc2ccccc2)N=C(c2ccc(OCCCO)cc2)O[C@@H]1c1ccccc1"
  READOUT NUMBER: 1.02
- COMPOUND: "N#Cc1ccc(NN2C(C(O)c3cc(C(F)(F)F)cc(C(F)(F)F)c3)C=CC3C(=O)N(c4ccccc4)C(=O)C32)cc1 (configuration not stated)"
  READOUT NUMBER: 1.19
- COMPOUND: "O=C(NN=C1C[C@@H](O)[C@@H](O)[C@@H]2[C@@H]3C(=O)N(c4cccc(Oc5ccccc5)c4)C(=O)[C@@H]3CC[C@@H]12)OCc1ccccc1"
  READOUT NUMBER: 0.277
- COMPOUND: "C[N+](C)(C)CCCCCCNC(=O)[C@@H]1C[C@@H]2C(=O)N3CCC[C@H]3C(=O)N2[C@@H]1c1cccc(OCCO)c1"
  READOUT NUMBER: 0.743
- COMPOUND: "CCOC(=O)NN=C1C[C@@H](O)[C@@H](O)[C@@H]2[C@@H]3C(=O)N(C[C@@H]4CCCO4)C(=O)[C@@H]3CC[C@@H]12"
  READOUT NUMBER: 0.437

# input for lookup
Prompt: Entry CCOC(=O)[C@H](Cc1ccccc1)NC(=O)CCC1CC(OC(=O)NCc2ccc3c(c2)OCO3)CC2(CCCC(COC(=O)NCC(c3ccccc3)c3ccccc3)O2)O1 (some centres not stated) , system Concanavalin-A (Canavalia ensiformis): what composite z-score was measured?
Response: 0.329

* * *

- MEASURED TARGET: Calmodulin-1 (Homo sapiens) (UniProt P0DP23)
- PROTOCOL: CALM1 binders on microarrays, EGTA buffer, profiling panel, biochemical, small-molecule microarray, Cy5-labelled CALM1 (AID 1111);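 note: labelled calmodulin applied in Tris saline Tween buffer holding calcium plus EGTA and DTT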
- CONDITION LABEL: Cy5-CALM1 binding fluorescence, higher = more signal
Measured composite z-score of individual entries
Lab note: jot down the number only; don't add units.

Recorded composite z-score, per entry:
- COMPOUND: "O[C@@H](Cc1ccccc1)[C@H]1C2C=CCCC(c3ccccc3)=C2CN1Cc1cccc(Cl)c1 (some centres not stated)"
  composite z-score: -0.118
- COMPOUND: "CCN1C(=O)[C@H]2[C@H]3[C@H](O)[C@H](O)CC(=NOC[C@@H](C)[C@H](OCc4ccccc4)C(C)C)[C@@H]3CC[C@H]2C1=O"
  composite z-score: 0.809

Prompt: Please look up its composite z-score: CO[C@@H]1COC(=O)CC=C[C@@H](C)[C@@H]2C=C[C@@H](O)[C@@H](COC(=O)CC=C[C@H]1C)O2
Response: -1.24

Prompt: Please look up its composite z-score: Cc1ccc(C2CC=C(C(=O)O)CN2S(=O)(=O)c2ccc(C)cc2)cc1 (configuration not stated)
Response: 0.189

Prompt: Please look up its composite z-score: O=C1[C@H]2[C@H]3[C@H](O)[C@H](O)CC(=NOC[C@@H](O)COCc4ccco4)[C@H]3CC[C@H]2C(=O)N1c1cccc(Oc2ccccc2)c1
Response: -0.876

Prompt: Please look up its composite z-score: O=C1NC(=O)C2C1C=CC(C(O)Cc1ccccc1)N2Nc1ccccn1 (configuration not stated)
Response: 0.0084

Prompt: Please look up its composite z-score: O=C1O[C@@H](c2ccccc2)[C@@H](c2ccccc2)N2[C@@H](c3ccccc3OCCO)[C@]3(C(=O)Nc4ccc(C#CCCO)cc43)[C@@H](C(=O)O)[C@H]12
Response: 1.04
